B1: TPR t1 (parent)
chain: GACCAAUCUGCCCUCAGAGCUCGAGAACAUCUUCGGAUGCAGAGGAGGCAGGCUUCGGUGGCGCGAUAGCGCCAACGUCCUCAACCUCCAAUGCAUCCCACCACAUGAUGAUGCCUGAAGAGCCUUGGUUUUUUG

# Variants of: B1
# Experiment Notes: polymerase ribozyme fitness, log enrichment relative to wild type (log ratio); higher = more active; in vitro selection for triplet polymerase activity
Classify as follows. Reported polymerase ribozyme fitness (log ratio) greater than or equal to -2: class 1. Reported polymerase ribozyme fitness (log ratio) below: class 0.

- C76A A119G: class 1
- U32C G71A C73U: class 1
- C11G C115G: class 1
- A43U G44U: class 1
- G61C G63U: class 0
- G63U A111C: class 1
- C72G G110A: class 1
- C12A G117C A121C U132A: class 0
- G63A A83G U106A: class 0
- C11U G44A: class 1
- C28U A37C C76G: class 0
- U9A G35U C72U G77A C124G U126A: class 0
- C11U A43U G60U A90C: class 1
